# System: Pseudomonas aeruginosa
# Protocol Description: MIC, compound in combination with a second agent (broth microdilution)
# Assay type: cell-based
# Measurement Conditions: 1:1 (wt:wt) combination with Rifampicin; MIC = total drug concentration; strain CCUG 59626
Where a name gives a salt, the structure may show the parent alone. Numbered stars: 1 amine (or outer) side, 2 acyl side, 3 side chain; on linkers, the order of the positions; unused ones are H or OH. Bridge positions count the residues as written; N and C are the ends. Square brackets hold non-standard residues; d marks the D form. Peptide text beside a SMILES is read from it. * marks the point of attachment. ξ: configuration not given here. ξβ3hPhg = O=C(CC(N[*:1])c1ccccc1)[*:2]; ξβ3hGly(cHex) = NC(CC(=O)*)C1CCCCC1; Thr(3ξ) = CC(O)[C@H](N)C(=O)O; X11 = O=C(C(O)c1cccc(Br)c1)*; Dab = NCC[C@H](N)C(=O)O; Inp = O=C(O)C1CCNCC1; Ahp = NCCCCCCC(=O)O
Listing of recorded MIC P. aeruginosa CCUG 59626 by entry.
Measured Quantity: MIC P. aeruginosa CCUG 59626 (micrograms/mL)

Compound	Target System	Measured Quantity	Reported Relation	Test Value
CC(C)C[C@@H]1NC(=O)[C@@H](Cc2ccccc2)NC(=O)[C@H](CCN)NC(=O)[C@@H](NC(=O)[C@H](CCN)NC(=O)[C@@H](NC(=O)CC(N)c2ccccc2)C(C)O)CCNC(=O)[C@H](C(C)O)NC(=O)[C@H](CCN)NC(=O)[C@H](CCN)NC1=O (stereo partly drawn) [Example 28] (ξβ3hPhg-[Thr(3ξ)][Dab][Dab][Dab][dF]L[Dab][Dab][Thr(3ξ)]; lactam 3-C)	Pseudomonas aeruginosa	MIC P. aeruginosa CCUG 59626	=	0.25
CC(C)C[C@@H]1NC(=O)[C@@H](Cc2ccccc2)NC(=O)[C@H](CCN)NC(=O)[C@@H](NC(=O)[C@H](CCN)NC(=O)[C@@H](NC(=O)[C@H](CCN)NC(=O)C2CCNCC2)C(C)O)CCNC(=O)[C@H](C(C)O)NC(=O)[C@H](CCN)NC(=O)[C@H](CCN)NC1=O (some centres unmarked) [Example 53, trifluoroacetate salt] (H-[Inp][Dab][Thr(3ξ)][Dab][Dab][Dab][dF]L[Dab][Dab][Thr(3ξ)]; lactam 5-C)	Pseudomonas aeruginosa	MIC P. aeruginosa CCUG 59626	≤	0.06
CC(C)C[C@@H]1NC(=O)[C@@H](Cc2ccccc2)NC(=O)[C@H](CCN)NC(=O)[C@@H](NC(=O)[C@H](CCN)NC(=O)[C@@H](NC(=O)C(O)c2cccc(Br)c2)C(C)O)CCNC(=O)[C@H](C(C)O)NC(=O)[C@H](CCN)NC(=O)[C@H](CCN)NC1=O (some centres unmarked) [Example 18] (X11-[Thr(3ξ)][Dab][Dab][Dab][dF]L[Dab][Dab][Thr(3ξ)]; lactam 3-C)	Pseudomonas aeruginosa	MIC P. aeruginosa CCUG 59626	=	0.25
CC(C)C[C@@H]1NC(=O)[C@@H](Cc2ccccc2)NC(=O)[C@H](CCN)NC(=O)[C@@H](NC(=O)[C@@H](CO)NC(=O)[C@@H](NC(=O)CC(N)C2CCCCC2)[C@@H](C)O)CCNC(=O)[C@H](C(C)O)NC(=O)[C@H](CCN)NC(=O)[C@H](CCN)NC1=O (stereo partly drawn) [Example 48, TFA salt] ({ξβ3hGly(cHex)}-T[dS][Dab][Dab][dF]L[Dab][Dab][Thr(3ξ)]; lactam 3-C)	Pseudomonas aeruginosa	MIC P. aeruginosa CCUG 59626	=	1
CC(C)C[C@@H]1NC(=O)[C@@H](Cc2ccccc2)NC(=O)[C@H](CCN)NC(=O)[C@@H](NC(=O)[C@H](CCN)NC(=O)[C@@H](NC(=O)CCCCCCN)C(C)O)CCNC(=O)[C@H](C(C)O)NC(=O)[C@H](CCN)NC(=O)[C@H](CCN)NC1=O (some centres unmarked) [Example 13, 7-Aminoheptanoyl polymyxin B nonapeptide] (H-[Ahp][Thr(3ξ)][Dab][Dab][Dab][dF]L[Dab][Dab][Thr(3ξ)]; lactam 4-C)	Pseudomonas aeruginosa	MIC P. aeruginosa CCUG 59626	=	0.125
